Give measured IC50 for each item. Keep answers brief.
Target: Somatostatin receptor type 4 (Homo sapiens, UniProt P31391)
Sequence (P31391 whole entry): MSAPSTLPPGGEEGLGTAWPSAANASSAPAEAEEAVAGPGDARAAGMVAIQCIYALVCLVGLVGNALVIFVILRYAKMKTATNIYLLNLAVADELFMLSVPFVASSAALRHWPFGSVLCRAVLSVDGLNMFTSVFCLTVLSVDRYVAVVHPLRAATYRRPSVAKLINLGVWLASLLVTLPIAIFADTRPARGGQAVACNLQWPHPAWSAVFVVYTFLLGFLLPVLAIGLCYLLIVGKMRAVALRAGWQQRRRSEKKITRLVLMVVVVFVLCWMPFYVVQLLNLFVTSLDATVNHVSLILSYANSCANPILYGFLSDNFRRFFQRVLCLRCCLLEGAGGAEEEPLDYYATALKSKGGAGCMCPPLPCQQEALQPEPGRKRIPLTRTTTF
One number for each entry, in nM.

Molecule: CN(C(=O)CO)[C@H]1NC(=O)[C@H](CCCCN)NC(=O)[C@@H](Cc2c[nH]c3ccccc23)NC(=O)[C@H](Cc2ccccc2)NC(=O)[C@H](Cc2ccccc2)NC(=O)[C@@H](N)CSSC[C@@H](C(=O)O)NC(=O)[C@H](Cc2ccccc2)NC1=O (stereo in doubt; 21)
IC50 (nM): 38

Measured IC50 of C[C@@H](O)[C@@H]1NC(=O)[C@H](CCCCN)NC(=O)[C@@H](Cc2c[nH]c3ccccc23)NC(=O)[C@H](N(C)C(=O)c2ccccc2)NC(=O)[C@H](Cc2ccccc2)NC(=O)[C@H](N)CSSC[C@@H](C(=O)O)NC(=O)[C@H](Cc2ccccc2)NC1=O (stereo in doubt; 8) : 5.2
